Molecular target: T1, Human β-cardiac mutant myosin S2 peptide (E930del), 18 residues (human, also: in FRET: FITC on N-terminus of one monomer, terbium-DTPA-cytosine chelate on C-terminal Lys of the other)
T1 construct: Deletion of glutamate 930 already in the entry; also called Edel930; ΔE930
T1 peptide: EMNERLEDEEMNAELTAK
Assay: FRET donor lifetime of 0.1 µM labelled S2 peptide dimer titrated with stabilizer
Where no end group is shown, it is not given here.
Parameter measured: Kd (nM)
Respond with the bare value in nM.

## Input For the binder KKKKKKKKFKAKKKKKK (also called stabilizing peptide; unlabeled stabilizer) [Stabilizer peptide] , give its reported Kd.
## Output 238
